- test_target: Amine oxidase [flavin-containing] A (Homo sapiens, UniProt P21397); note: assay procedure not described here
- Sequence (P21397 whole entry): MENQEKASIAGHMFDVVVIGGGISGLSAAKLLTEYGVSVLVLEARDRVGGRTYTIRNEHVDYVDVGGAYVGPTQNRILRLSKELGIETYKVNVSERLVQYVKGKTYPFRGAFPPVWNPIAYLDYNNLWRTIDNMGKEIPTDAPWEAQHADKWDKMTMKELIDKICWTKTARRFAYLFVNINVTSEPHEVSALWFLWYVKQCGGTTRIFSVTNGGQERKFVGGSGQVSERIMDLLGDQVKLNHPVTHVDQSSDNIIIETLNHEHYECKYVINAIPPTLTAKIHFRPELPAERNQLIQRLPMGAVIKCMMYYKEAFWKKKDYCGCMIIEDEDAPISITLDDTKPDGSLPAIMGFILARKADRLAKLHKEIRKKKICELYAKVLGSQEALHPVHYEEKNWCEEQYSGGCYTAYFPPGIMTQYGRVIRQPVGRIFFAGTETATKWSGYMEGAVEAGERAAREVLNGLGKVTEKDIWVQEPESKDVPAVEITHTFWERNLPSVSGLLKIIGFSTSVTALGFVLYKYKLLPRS
- Format: functional
Entries and their measured AC50 follow.
reported_metric: AC50

{"compound": "O=C(O)c1ccccc1Nc1cccc(C(F)(F)F)c1", "value": "> 10 µM"}
{"compound": "CCCN(CCC)CCc1cccc2c1CC(=O)N2", "value": "> 30 µM"}
{"compound": "Cc1cc2nc3c(=O)[nH]c(=O)nc-3n(C[C@H](O)[C@H](O)[C@H](O)COP(=O)(O)O)c2cc1C [RIBOFLAVIN 5'-PHOSPHATE]", "value": "> 30 µM"}
{"compound": "[H]/N=C(\\N/C(=N/[H])NCCCCCCNC(=N)NC(=N)Nc1ccc(Cl)cc1)Nc1ccc(Cl)cc1", "value": "> 10 µM"}
{"compound": "Cc1ccc2c(-c3ccccc3)nc(=O)n(C(C)C)c2c1", "value": "> 30 µM"}
{"compound": "Cc1ccc(NC(=O)C2(c3ccc4c(c3)OC(F)(F)O4)CC2)nc1-c1cccc(C(=O)O)c1", "value": "> 30 µM"}
{"compound": "C[C@H]1Oc2cc(cnc2N)-c2c(nn(C)c2C#N)CN(C)C(=O)c2ccc(F)cc21", "value": "> 30 µM"}
{"compound": "CNCCCC1c2ccccc2C=Cc2ccccc21", "value": "> 10 µM"}
{"compound": "CC(=O)/N=c1/sc(S(N)(=O)=O)nn1C [METHAZOLAMIDE]", "value": "> 10 µM"}
{"compound": "COc1c(O[C@@H]2O[C@H](CO)[C@@H](O)[C@H](O)[C@H]2O)cc2c(c1OC)-c1ccc(SC)c(=O)cc1[C@@H](NC(C)=O)CC2 [THIOCOLCHICOSIDE]", "value": "> 30 µM"}
{"compound": "CCCN(CC)C(CC)C(=O)Nc1c(C)cccc1C (stereo not drawn)", "value": "> 30 µM"}
{"compound": "O=C(Nc1c(Cl)cncc1Cl)c1ccc(OC(F)F)c(OCC2CC2)c1", "value": "> 30 µM"}
{"compound": "COc1cc2nccc(Oc3ccc(NC(=O)Nc4cc(C)on4)c(Cl)c3)c2cc1OC", "value": "> 30 µM"}
{"compound": "CCN(CC)CCOC(=O)c1ccc(N)cc1Cl", "value": "7.9 µM"}
{"compound": "N[C@H](Cc1cc(I)c(Oc2cc(I)c(O)c(I)c2)c(I)c1)C(=O)O", "value": "> 10 µM"}
{"compound": "CCOC(=O)NNc1ccc(N(CC)CC(C)O)nn1 (stereo not drawn)", "value": "> 30 µM"}
{"compound": "CCC(C)(Oc1ccc(C2(c3ccc(OC(C)(CC)C(=O)O)cc3)CCCCC2)cc1)C(=O)O (stereo not drawn) [CLINOFIBRATE]", "value": "> 30 µM"}
{"compound": "CCCC[C@H](C)C[C@H](O)/C=C/[C@H]1[C@H](O)CC(=O)[C@@H]1CCCC/C=C/C(=O)O", "value": "> 30 µM"}
{"compound": "COC(=O)N[C@@H](C)CNc1nccc(-c2cn(C(C)C)nc2-c2cc(Cl)cc(NS(C)(=O)=O)c2F)n1", "value": "> 30 µM"}
{"compound": "C[C@@H]1C[C@H]2[C@@H]3C[C@H](F)C4=CC(=O)C=C[C@]4(C)[C@@]3(F)[C@@H](O)C[C@]2(C)[C@H]1C(=O)CO", "value": "> 30 µM"}
{"compound": "CC(C)=CCOc1ccc(/C=C/C(=O)c2ccc(OCC=C(C)C)cc2OCC(=O)O)cc1", "value": "> 30 µM"}
{"compound": "CC(NCCc1ccc(O)cc1)C(O)c1ccc(O)cc1 (stereo not drawn)", "value": "> 30 µM"}
{"compound": "CC(C)N(CCCCOCC(=O)NS(C)(=O)=O)c1cnc(-c2ccccc2)c(-c2ccccc2)n1", "value": "> 30 µM"}

* * *

Entries and their measured AC50 follow.
- test_target: Prostaglandin G/H synthase 1 (Rattus norvegicus); note: assay procedure not described here
- Sequence (Q63921 whole entry): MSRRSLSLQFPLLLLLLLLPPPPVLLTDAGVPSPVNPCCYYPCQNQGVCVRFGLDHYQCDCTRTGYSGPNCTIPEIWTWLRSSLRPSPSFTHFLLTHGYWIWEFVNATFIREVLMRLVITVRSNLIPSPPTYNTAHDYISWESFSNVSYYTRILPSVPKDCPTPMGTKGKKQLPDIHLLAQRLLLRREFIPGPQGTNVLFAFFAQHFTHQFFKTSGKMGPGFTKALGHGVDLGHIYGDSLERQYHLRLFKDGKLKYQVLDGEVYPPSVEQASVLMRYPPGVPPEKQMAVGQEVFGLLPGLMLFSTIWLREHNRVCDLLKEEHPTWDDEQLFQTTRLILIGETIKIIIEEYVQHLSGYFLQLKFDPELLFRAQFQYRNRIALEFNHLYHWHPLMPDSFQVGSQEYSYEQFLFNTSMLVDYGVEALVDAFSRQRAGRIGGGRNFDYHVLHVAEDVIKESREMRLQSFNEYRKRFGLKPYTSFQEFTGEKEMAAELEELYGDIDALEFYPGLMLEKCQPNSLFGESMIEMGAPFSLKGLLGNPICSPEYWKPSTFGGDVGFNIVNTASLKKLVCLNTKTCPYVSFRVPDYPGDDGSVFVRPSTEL
- Type: functional

{"compound": "CCCCC1(CC)C(=O)NC(=O)NC1=O", "AC50": "> 30 µM"}
{"compound": "CC(=O)OCC(=O)[C@@]1(O)CC[C@H]2[C@@H]3CCC4=CC(=O)CC[C@]4(C)C3=CC[C@@]21C [ANECORTAVE ACETATE]", "AC50": "> 10 µM"}
{"compound": "Cn1c(=O)c2[nH]cnc2n(C)c1=O", "AC50": "> 30 µM"}
{"compound": "CC(=O)O[C@H]1C[C@@H]2CC[C@@H]3[C@H](CC[C@@]4(C)[C@H]3C[C@H]([N+]3(C)CCCCC3)[C@@H]4OC(C)=O)[C@@]2(C)C[C@@H]1[N+]1(C)CCCCC1", "AC50": "> 10 µM"}
{"compound": "CC(C)CC(N(C)C)C1(c2ccc(Cl)cc2)CCC1 (stereo not drawn)", "AC50": "> 30 µM"}
{"compound": "COc1cc(OC)c(C(=O)CCCN2CCCC2)c(OC)c1", "AC50": "> 30 µM"}
{"compound": "CN1[C@@H]2CC[C@H]1C[C@@H](OC(=O)c1c[nH]c3ccccc13)C2", "AC50": "> 30 µM"}
{"compound": "Clc1ccc(C(Cn2ccnc2)OCc2ccc(Sc3ccccc3)cc2)c(Cl)c1 (stereo not drawn)", "AC50": "30 µM"}

* * *

- test_target: Vascular endothelial growth factor receptor 2 (Homo sapiens); note: assay procedure not described here
- Sequence (P35968 whole entry): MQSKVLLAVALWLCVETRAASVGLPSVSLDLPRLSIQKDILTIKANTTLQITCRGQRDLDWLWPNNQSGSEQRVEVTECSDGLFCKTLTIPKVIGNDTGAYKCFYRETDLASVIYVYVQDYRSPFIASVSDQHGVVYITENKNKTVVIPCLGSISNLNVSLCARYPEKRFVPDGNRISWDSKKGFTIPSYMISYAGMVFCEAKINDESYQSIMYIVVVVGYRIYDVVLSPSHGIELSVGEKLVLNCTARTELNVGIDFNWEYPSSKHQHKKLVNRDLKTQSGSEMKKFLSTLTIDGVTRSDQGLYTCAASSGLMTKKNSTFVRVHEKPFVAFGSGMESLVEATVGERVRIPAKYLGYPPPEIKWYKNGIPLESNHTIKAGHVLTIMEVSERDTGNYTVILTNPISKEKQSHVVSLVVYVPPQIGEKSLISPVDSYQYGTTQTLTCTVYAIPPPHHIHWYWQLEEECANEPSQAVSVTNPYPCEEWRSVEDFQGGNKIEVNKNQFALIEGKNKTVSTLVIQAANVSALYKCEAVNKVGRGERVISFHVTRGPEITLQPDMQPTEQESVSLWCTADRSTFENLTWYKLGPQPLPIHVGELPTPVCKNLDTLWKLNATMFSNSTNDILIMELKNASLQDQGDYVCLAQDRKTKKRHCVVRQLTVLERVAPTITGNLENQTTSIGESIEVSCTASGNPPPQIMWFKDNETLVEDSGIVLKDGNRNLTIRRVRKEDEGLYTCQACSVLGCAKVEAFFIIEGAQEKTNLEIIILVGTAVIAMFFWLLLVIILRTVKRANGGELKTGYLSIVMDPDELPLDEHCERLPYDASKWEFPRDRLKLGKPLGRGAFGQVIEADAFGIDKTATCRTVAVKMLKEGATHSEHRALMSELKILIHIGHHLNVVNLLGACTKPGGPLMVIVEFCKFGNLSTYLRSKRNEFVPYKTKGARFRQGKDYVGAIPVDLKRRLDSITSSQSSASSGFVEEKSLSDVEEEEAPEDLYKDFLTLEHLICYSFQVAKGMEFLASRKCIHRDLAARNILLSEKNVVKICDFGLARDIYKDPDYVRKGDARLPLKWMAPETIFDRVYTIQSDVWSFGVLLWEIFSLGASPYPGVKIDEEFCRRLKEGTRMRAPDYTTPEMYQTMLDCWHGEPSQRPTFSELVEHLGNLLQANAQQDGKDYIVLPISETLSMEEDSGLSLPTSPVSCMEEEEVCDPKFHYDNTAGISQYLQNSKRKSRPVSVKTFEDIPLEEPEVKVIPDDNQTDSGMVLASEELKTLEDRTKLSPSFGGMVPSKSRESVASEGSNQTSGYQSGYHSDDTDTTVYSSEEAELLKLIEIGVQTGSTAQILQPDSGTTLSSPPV
- Type: functional
Entries and their measured AC50 follow.

{"molecule": "O=C1c2c(O)cccc2Cc2cccc(O)c21 [ANTHRALIN]", "AC50": "6.14 µM"}
{"molecule": "C[C@@H](O)[C@H]1C(=O)N2C(C(=O)O)=C([C@H]3CCCO3)S[C@H]12 [FAROPENEM]", "AC50": "> 30 µM"}
{"molecule": "O=C(O)c1cc(=O)c2ccccc2o1 [CHROMOCARB]", "AC50": "> 30 µM"}
{"molecule": "c1ccc2c(CC3=NCCN3)cccc2c1 [NAPHAZOLINE]", "AC50": "> 30 µM"}
{"molecule": "Cn1c(=O)c2c(ncn2CC(O)CO)n(C)c1=O (stereo not given) [DYPHYLLINE]", "AC50": "> 30 µM"}

* * *

- test_target: Acetylcholinesterase (Homo sapiens); note: assay procedure not described here
- Sequence (P22303 whole entry): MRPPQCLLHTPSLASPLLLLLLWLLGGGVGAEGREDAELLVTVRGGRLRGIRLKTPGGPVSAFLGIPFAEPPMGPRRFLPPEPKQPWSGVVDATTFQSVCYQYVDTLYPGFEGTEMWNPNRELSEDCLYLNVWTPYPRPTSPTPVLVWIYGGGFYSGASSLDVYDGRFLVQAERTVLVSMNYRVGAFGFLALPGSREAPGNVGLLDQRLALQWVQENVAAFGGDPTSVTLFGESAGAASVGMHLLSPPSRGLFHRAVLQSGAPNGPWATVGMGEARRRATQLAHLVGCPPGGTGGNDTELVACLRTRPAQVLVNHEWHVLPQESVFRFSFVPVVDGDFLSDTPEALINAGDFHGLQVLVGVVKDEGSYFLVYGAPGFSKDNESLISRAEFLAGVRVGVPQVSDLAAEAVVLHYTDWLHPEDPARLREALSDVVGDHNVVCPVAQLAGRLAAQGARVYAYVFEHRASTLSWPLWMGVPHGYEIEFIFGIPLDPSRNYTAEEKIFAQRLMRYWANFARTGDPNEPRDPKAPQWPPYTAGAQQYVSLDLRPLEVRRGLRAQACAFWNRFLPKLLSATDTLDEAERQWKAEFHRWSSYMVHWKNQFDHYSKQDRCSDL
- Format: functional

{"compound_string": "CC(C)C[C@H](CN)CC(=O)O", "units_of_measure": "µM", "prefix_operator": ">", "AC50": 30}
{"compound_string": "C=C(C)[C@@H]1CCC(C)=C[C@H]1c1c(O)cc(CCCCC)cc1O", "units_of_measure": "µM", "prefix_operator": "=", "AC50": 17}
{"compound_string": "C[C@H]1Oc2cc(cnc2N)-c2c(nn(C)c2C#N)CN(C)C(=O)c2ccc(F)cc21", "units_of_measure": "µM", "prefix_operator": "=", "AC50": 1.8}

* * *

Entries and their measured AC50 follow.
- test_target: 5-hydroxytryptamine receptor 2C (Homo sapiens, UniProt P28335); note: assay procedure not described here
- Sequence (P28335 whole entry): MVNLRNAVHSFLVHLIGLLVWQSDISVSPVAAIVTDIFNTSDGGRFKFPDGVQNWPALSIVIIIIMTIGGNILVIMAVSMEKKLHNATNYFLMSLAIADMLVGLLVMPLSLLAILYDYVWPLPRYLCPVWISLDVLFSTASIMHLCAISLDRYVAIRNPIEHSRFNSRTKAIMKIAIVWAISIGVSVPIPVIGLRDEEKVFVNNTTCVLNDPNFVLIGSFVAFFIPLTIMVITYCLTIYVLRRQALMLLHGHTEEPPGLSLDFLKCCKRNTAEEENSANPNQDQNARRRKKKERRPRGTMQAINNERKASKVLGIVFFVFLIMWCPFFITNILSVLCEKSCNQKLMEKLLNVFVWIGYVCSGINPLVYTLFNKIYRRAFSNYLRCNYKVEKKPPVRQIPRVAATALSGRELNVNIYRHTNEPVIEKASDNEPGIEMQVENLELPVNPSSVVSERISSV

{"molecule": "CC#CCn1c(N2CCC[C@@H](N)C2)nc2c1c(=O)n(Cc1nc(C)c3ccccc3n1)c(=O)n2C", "AC50": "> 30 µM"}
{"molecule": "C=C[C@@]1(C)CC(=O)[C@]2(O)[C@@]3(C)[C@@H](O)CCC(C)(C)[C@@H]3[C@H](OC(=O)CCN(C)C)[C@H](OC(C)=O)[C@@]2(C)O1", "AC50": "> 30 µM"}
{"molecule": "N#C[C@@H]1CCCN1C(=O)CNC12CC3CC(CC(O)(C3)C1)C2", "AC50": "> 30 µM"}
{"molecule": "CCCCCCNC(=O)n1cc(F)c(=O)[nH]c1=O", "AC50": "> 30 µM"}
{"molecule": "Cc1cc2nc3c(=O)[nH]c(=O)nc-3n(C[C@H](O)[C@H](O)[C@H](O)COP(=O)(O)O)c2cc1C [RIBOFLAVIN 5'-PHOSPHATE]", "AC50": "24 µM"}
{"molecule": "C=CC(N)CCC(=O)O (stereo not drawn)", "AC50": "> 30 µM"}
{"molecule": "CCN(CC)CCOC(=O)c1ccc(N)cc1Cl", "AC50": "17 µM"}
{"molecule": "CC(C)=CCOc1ccc(/C=C/C(=O)c2ccc(OCC=C(C)C)cc2OCC(=O)O)cc1", "AC50": "> 30 µM"}

Hello, the source for this data is ChEMBL document CHEMBL5291721, in case you need it.
